# maps each entry to its pKd
- system.tested: Human recombinant FAP (Homo sapiens, UniProt Q12884)
- Sequence (Q12884 whole entry): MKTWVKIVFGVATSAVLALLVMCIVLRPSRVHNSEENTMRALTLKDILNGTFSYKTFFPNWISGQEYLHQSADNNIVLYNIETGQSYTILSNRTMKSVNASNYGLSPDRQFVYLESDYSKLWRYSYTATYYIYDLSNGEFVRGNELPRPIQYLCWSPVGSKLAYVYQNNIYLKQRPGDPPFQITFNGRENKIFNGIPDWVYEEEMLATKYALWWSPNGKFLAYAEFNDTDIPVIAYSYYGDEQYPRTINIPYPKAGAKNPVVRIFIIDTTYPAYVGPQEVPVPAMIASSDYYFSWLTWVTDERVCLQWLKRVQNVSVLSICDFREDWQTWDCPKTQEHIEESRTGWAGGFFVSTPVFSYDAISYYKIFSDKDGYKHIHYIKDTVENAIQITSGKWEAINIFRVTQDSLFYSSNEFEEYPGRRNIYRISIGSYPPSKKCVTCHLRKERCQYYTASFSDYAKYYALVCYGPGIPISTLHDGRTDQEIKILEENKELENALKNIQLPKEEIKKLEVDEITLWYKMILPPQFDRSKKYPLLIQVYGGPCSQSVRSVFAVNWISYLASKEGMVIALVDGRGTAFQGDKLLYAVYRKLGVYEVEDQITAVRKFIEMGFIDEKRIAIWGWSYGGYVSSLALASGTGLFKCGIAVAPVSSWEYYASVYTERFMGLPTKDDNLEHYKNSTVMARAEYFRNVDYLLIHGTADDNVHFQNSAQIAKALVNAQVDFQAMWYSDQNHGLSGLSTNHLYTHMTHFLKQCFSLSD
- method.description: Surface plasmon resonance (Biacore) assay
pKd: −log10 of the molar value. Numbered stars: 1 amine (or outer) side, 2 acyl side, 3 side chain; on linkers, the order of the positions; unused ones are H or OH. Bridge positions count the residues as written; N and C are the ends. Peptide text beside a SMILES is read from it. * marks the point of attachment. X1 = O=C(O)CN1CCN(CC(=O)O)CCN(CC(=O)N2CCN(Cc3cc(C[*:1])cc(C[*:2])c3)CC2)CCN(CC(=O)O)CC1; Hexanoyl = CCCCCC(=O)*

CCCCCC(=O)N[C@H]1CSCc2cc(cc(CN3CCN(C(=O)CN4CCN(CC(=O)O)CCN(CC(=O)O)CCN(CC(=O)O)CC4)CC3)c2)CSC[C@@H](C(=O)N[C@@H](CC(=O)O)C(N)=O)NC(=O)[C@H](Cc2ccccc2)NC(=O)[C@H](CCC(N)=O)NC(=O)[C@H]([C@@H](C)O)NC(=O)[C@@H]2CCCN2C(=O)[C@@H]2CCCN2C1=O [3BP-3407] (Hexanoyl-CPPTQFCD-NH2; linker 1-7 via X1)	> 8.00

Pending compound:
Which pKd is reported for this compound? `CCCCCC(=O)N[C@H]1CSCc2cc(CSCCNC(=O)COCCOCCNC(=O)C(CNCCN)CNCCN)cc(c2)CSC[C@@H](C(=O)O)NC(=O)[C@H](Cc2ccccc2)NC(=O)[C@H](CCC(N)=O)NC(=O)[C@H]([C@@H](C)O)NC(=O)[C@@H]2CCCN2C(=O)[C@@H]2CCCN2C1=O` > 8.00
